tested on: HeLa Kyoto; test: thermal stability score vs G1/S (z-score of summed log2 fold changes over temperatures); higher = more thermally stable than in G1/S; conditions: cell cycle stage: mitosis
VALUE TYPE: thermal stability score
Give bare numbers.

Use these answered entries as a reference point.
INSERT INTO assay_data (residue_sequence, value_type, measured) VALUES
  ('MDQEPVGGVERGEAVAASGAAAAAAFGESAGQMSNERGFENVELGVIGKKKKVPRRVIHFVSGETMEEYSTDEDEVDGLEKKDVLPTVDPTKLTWGPYLWFYMLRAATSTLSVCDFLGEKIASVLGISTPKYQYAIDEYYRMKKEEEEEEEENRMSEEAEKQYQQNKLQTDSIVQTDQPETVISSSFVNVNFEMEGDSEVIMESKQNPVSVPP [FAM177A1]', 'thermal stability score', -0.398),
  ('MASGNARIGKPAPDFKATAVVDGAFKEVKLSDYKGKYVVLFFYPLDFTFVCPTEIIAFSNRAEDFRKLGCEVLGVSVDSQFTHLAWINTPRKEGGLGPLNIPLLADVTRRLSEDYGVLKTDEGIAYRGLFIIDGKGVLRQITVNDLPVGRSVDEALRLVQAFQYTDEHGEVCPAGWKPGSDTIKPNVDDSKEYFSKHN [PRDX2]', 'thermal stability score', -3.32),
  ('MAATASAGAGGIDGKPRTSPKSVKFLFGGLAGMGATVFVQPLDLVKNRMQLSGEGAKTREYKTSFHALTSILKAEGLRGIYTGLSAGLLRQATYTTTRLGIYTVLFERLTGADGTPPGFLLKAVIGMTAGATGAFVGTPAEVALIRMTADGRLPADQRRGYKNVFNALIRITREEGVLTLWRGCIPTMARAVVVNAAQLASYSQSKQFLLDSGYFSDNILCHFCASMISGLVTTAASMPVDIAKTRIQNMRMIDGKPEYKNGLDVLFKVVRYEGFFSLWKGFTPYYARLGPHTVLTFIFLEQMNKAYKRLFLSG [SLC25A11]', 'thermal stability score', -2.54);

Would you be so kind as to report thermal stability score for each listed record?
1. MGSSKKVTLSVLSREQSEGVGARVRRSIGRPELKNLDPFLLFDEFKGGRPGGFPDHPHRGFETVSYLLEGGSMAHEDFCGHTGKMNPGDLQWMTAGRGILHAEMPCSEEPAHGLQLWVNLRSSEKMVEPQYQELKSEEIPKPSKDGVTVAVISGEALGIKSKVYTRTPTLYLDFKLDPGAKHSQPIPKGWTSFIYTISGDVYIGPDDAQQKIEPHHTAVLGEGDSVQVENKDPKRSHFVLIAGEPLREPVIQHGPFVMNTNEEISQAILDFRNAKNGFERAKTWKSKIGN [PIR]
2. MSLLLYYALPALGSYAMLSIFFLRRPHLLHTPRAPTFRIRLGAHRGGSGELLENTMEAMENSMAQRSDLLELDCQLTRDRVVVVSHDENLCRQSGLNRDVGSLDFEDLPLYKEKLEVYFSPGHFAHGSDRRMVRLEDLFQRFPRTPMSVEIKGKNEELIREIAGLVRRYDRNEITIWASEKSSVMKKCKAANPEMPLSFTISRGFWVLLSYYLGLLPFIPIPEKFFFCFLPNIINRTYFPFSCSCLNQLLAVVSKWLIMRKSLIRHLEERGVQVVFWCLNEESDFEAAFSVGATGVITDYPTALRHYLDNHGPAARTS [GDPD3]
3. MPGRAPLRTVPGALGAWLLGGLWAWTLCGLCSLGAVGAPRPCQAPQQWEGRQVMYQQSSGRNSRALLSYDGLNQRVRVLDERKALIPCKRLFEYILLYKDGVMFQIDQATKQCSKMTLTQPWDPLDIPQNSTFEDQYSIGGPQEQITVQEWSDRKSARSYETWIGIYTVKDCYPVQETFTINYSVILSTRFFDIQLGIKDPSVFTPPSTCQMAQLEKMSEDCSW [EPDR1]

*A*
1: -1.89; 2: 0.35; 3: -2.65

---

Please go through the items and note down their thermal stability score.
tested on: HeLa Kyoto; assay: thermal stability score vs G1/S (z-score of summed log2 fold changes over temperatures); higher = more thermally stable than in G1/S; conditions: cell cycle stage: early G1 (4.5 h after nocodazole release)
Give bare numbers.

INSERT INTO results (residue_sequence, system_under_test, measured) VALUES
  ('MAGSVADSDAVVKLDDGHLNNSLSSPVQADVYFPRLIVPFCGHIKGGMRPGKKVLVMGIVDLNPESFAISLTCGDSEDPPADVAIELKAVFTDRQLLRNSCISGERGEEQSAIPYFPFIPDQPFRVEILCEHPRFRVFVDGHQLFDFYHRIQTLSAIDTIKINGDLQITKLG [LGALSL]', 'HeLa Kyoto', 0.0977);

*Q* Quickly give me recorded thermal stability score for MAERGELDLTGAKQNTGVWLVKVPKYLSQQWAKASGRGEVGKLRIAKTQGRTEVSFTLNEDLANIHDIGGKPASVSAPREHPFVLQSVGGQTLTVFTESSSDKLSLEGIVVQRAECRPAASENYMRLKRLQIEESSKPVRLSQQLDKVVTTNYKPVANHQYNIEYERKKKEDGKRARADKQHVLDMLFSAFEKHQYYNLKDLVDITKQPVVYLKEILKEIGVQNVKGIHKNTWELKPEYRHYQGEEKSD [GTF2F2]
*A* 0.0893

---

system: HeLa Kyoto; assay: melting temperature (median over replicates), in situ; higher = more thermally stable; conditions: cell cycle stage: G1/S
Would you mind telling me the reported melting temperature of each entry?
Answers are plain numbers, in °C.

Sample records with melting temperature:
INSERT INTO measurements (residue_sequence, value_type, measured) VALUES
  ('MEPRAVGVSKQDIREQIWGYMESQNLADFPRPVHHRIPNFKGSYLACQNIKDLDVFARTQEVKVDPDKPLEGVRLLVLQSKKTLLVPTPRLRTGLFNKITPPPGATKDILRKCATSQGVRNYSVPIGLDSRVLVDLVVVGSVAVSEKGWRIGKGEGYADLEYAMMVSMGAVSKETPVVTIVHDCQVVDIPEELVEEHDITVDYILTPTRVIATGCKRPKPMGITWFKISLEMMEKIPILRSLRAREQQAGKDVTLQGEHQHLPEPGCQQTVPLSVGRRPPDTPGPETNSMEAAPGSPPGEGAPLAADVYVGNLPGDARVSDLKRALRELGSVPLRLTWQGPRRRAFLHYPDSAAAQQAVSCLQGLRLGTDTLRVALARQQRDK [MTHFSD]', 'melting temperature', 54.7),
  ('MAEQEPTAEQLAQIAAENEEDEHSVNYKPPAQKSIQEIQELDKDDESLRKYKEALLGRVAVSADPNVPNVVVTGLTLVCSSAPGPLELDLTGDLESFKKQSFVLKEGVEYRIKISFRVNREIVSGMKYIQHTYRKGVKIDKTDYMVGSYGPRAEEYEFLTPVEEAPKGMLARGSYSIKSRFTDDDKTDHLSWEWNLTIKKDWKD [ARHGDIA]', 'melting temperature', 51.5),
  ('MAAAEAGGDDARCVRLSAERAQALLADVDTLLFDCDGVLWRGETAVPGAPEALRALRARGKRLGFITNNSSKTRAAYAEKLRRLGFGGPAGPGASLEVFGTAYCTALYLRQRLAGAPAPKAYVLGSPALAAELEAVGVASVGVGPEPLQGEGPGDWLHAPLEPDVRAVVVGFDPHFSYMKLTKALRYLQQPGCLLVGTNMDNRLPLENGRFIAGTGCLVRAVEMAAQRQADIIGKPSRFIFDCVSQEYGINPERTVMVGDRLDTDILLGATCGLKTILTLTGVSTLGDVKNNQESDCVSKKKMVPDFYVDSIADLLPALQG [PGP]', 'melting temperature', 56.8),
  ('MEGSLEREAPAGALAAVLKHSSTLPPESTQVRGYDFNRGVNYRALLEAFGTTGFQATNFGRAVQQVNAMIEKKLEPLSQDEDQHADLTQSRRPLTSCTIFLGYTSNLISSGIRETIRYLVQHNMVDVLVTTAGGVEEDLIKCLAPTYLGEFSLRGKELRENGINRIGNLLVPNENYCKFEDWLMPILDQMVMEQNTEGVKWTPSKMIARLGKEINNPESVYYWAQKNHIPVFSPALTDGSLGDMIFFHSYKNPGLVLDIVEDLRLINTQAIFAKCTGMIILGGGVVKHHIANANLMRNGADYAVYINTAQEFDGSDSGARPDEAVSWGKIRVDAQPVKVYADASLVFPLLVAETFAQKMDAFMHEKNED [DHPS]', 'melting temperature', 56.2);

Now let's try a different one.
*Q* // output melting temperature; input MADEATRRVVSEIPVLKTNAGPRDRELWVQRLKEEYQSLIRYVENNKNADNDWFRLESNKEGTRWFGKCWYIHDLLKYEFDIEFDIPITYPTTAPEIAVPELDGKTAKMYRGGKICLTDHFKPLWARNVPKFGLAHLMALGLGPWLAVEIPDLIQKGVIQHKEKCNQ [UFC1] ; system HeLa Kyoto
*A* 53.3
